I'd be grateful if you could share measured Kd for these entries.
- system.tested: PARP-2 (Homo sapiens (Human))
- Sequence (Q9UGN5 whole entry): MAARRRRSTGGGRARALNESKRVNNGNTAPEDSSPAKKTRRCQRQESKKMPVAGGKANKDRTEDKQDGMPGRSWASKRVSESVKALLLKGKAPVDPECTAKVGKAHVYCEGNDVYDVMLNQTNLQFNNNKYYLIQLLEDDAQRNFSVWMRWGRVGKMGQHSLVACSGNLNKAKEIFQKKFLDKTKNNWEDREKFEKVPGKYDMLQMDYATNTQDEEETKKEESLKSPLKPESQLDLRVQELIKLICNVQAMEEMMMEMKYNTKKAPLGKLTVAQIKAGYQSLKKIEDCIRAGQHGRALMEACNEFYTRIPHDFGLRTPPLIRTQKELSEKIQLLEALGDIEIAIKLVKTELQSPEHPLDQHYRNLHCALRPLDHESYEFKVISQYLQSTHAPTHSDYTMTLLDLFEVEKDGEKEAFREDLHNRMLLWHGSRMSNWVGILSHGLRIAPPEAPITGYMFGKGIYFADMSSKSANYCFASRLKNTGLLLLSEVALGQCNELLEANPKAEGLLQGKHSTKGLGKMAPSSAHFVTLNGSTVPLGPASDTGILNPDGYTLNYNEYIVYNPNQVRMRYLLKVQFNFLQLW
- details: read-out: PARP-2 (Kd μM); probe P1
One number for each entry, in µM.

Guide cases for Kd, answers given:
Cn1c2cccc(C(N)=O)c2c(=O)n1C1CCN(C2CCC(F)(F)CC2)CC1 :: 1.88
NC(=O)c1cccc2[nH]n(C3CCN(C4CCCC4)CC3)c(=O)c12 :: 1.49
Cn1c2cccc(C(N)=O)c2c(=O)n1C1CCNCC1 :: 0.14
Cn1c2cc(F)cc(C(N)=O)c2c(=O)n1C1CCNCC1 :: 0.07

// next item, Kd requested
Looking up "CC(C)N1CCC(n2c(=O)c3c(C(N)=O)cccc3n2C)CC1" , I found its Kd recorded as 0.03
